target-of-assay: Prostaglandin E synthase (Homo sapiens) (UniProt O14684)
Sequence (O14684 whole entry): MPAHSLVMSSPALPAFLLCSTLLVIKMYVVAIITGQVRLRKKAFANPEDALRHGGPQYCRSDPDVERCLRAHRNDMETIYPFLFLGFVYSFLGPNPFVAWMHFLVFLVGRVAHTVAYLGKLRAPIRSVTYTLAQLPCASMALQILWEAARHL
assay-method-text: Inhibition of human mPGES-1 expressed in 293-F cells using PGH2 as substrate preincubated for 15 mins followed by substrate addition measured after 30 secs at 10 uM by enzyme immunoassay
reported-endpoint: inhibition (%)
Please give a number only; it is taken to be in %.

Incoming: Return reported inhibition; argument: `CCOc1ccc(NC(=S)N2CCC(CCCC3CCN(C(=S)Nc4ccc(OCC)cc4)CC3)CC2)cc1`
Outgoing: 59

Incoming: Return reported inhibition; argument: `CC(C)C(=O)OCC(C)(C)[C@H](OC(=O)COc1ccc(Cl)cc1Cl)C(C)C`
Outgoing: 69

Incoming: Return reported inhibition; argument: `S=C(Nc1ccccc1)N1CCC(CCCC2CCN(C(=S)Nc3ccccc3)CC2)CC1`
Outgoing: 53

Incoming: Return reported inhibition; argument: `O=[N+]([O-])c1ccc(N/N=C(\C=C\c2ccc3c(c2)OCO3)c2cnc(Nc3ccc(Cl)c(Cl)c3)s2)c([N+](=O)[O-])c1`
Outgoing: 98

Incoming: Return reported inhibition; argument: `O=C(OCCN(CCOC(=O)c1ccccc1)C(=O)N(CCOC(=O)c1ccccc1)CCOC(=O)c1ccccc1)c1ccccc1`
Outgoing: 46

Incoming: Return reported inhibition; argument: `CCCCCCCCCCCCc1ccc(NC2=C(Cl)C(=O)C(Nc3ccc(CCCCCCCCCCCC)cc3)=C(Cl)C2=O)cc1`
Outgoing: 49

Incoming: Return reported inhibition; argument: `Cc1ccc(NC(=O)c2cc(S(=O)(=O)Nc3n[nH]c(=O)[nH]3)c(SSc3cc(Cl)c(C(=O)Nc4ccc(C)cc4)cc3S(=O)(=O)Nc3n[nH]c(=O)[nH]3)cc2Cl)cc1`
Outgoing: 47

Incoming: Return reported inhibition; argument: `CC/C(=C(/CC)c1ccc(Oc2nc(N3CC3)nc(N3CC3)n2)cc1)c1ccc(Oc2nc(N3CC3)nc(N3CC3)n2)cc1`
Outgoing: 46

----------
Record form. Attribute: inhibition. Fill in for each entry.
target-of-assay: Prostaglandin E synthase (Homo sapiens) (UniProt O14684)
assay-method-text: Inhibition of human mPGES-1 expressed in 293-F cells using PGH2 as substrate preincubated for 15 mins followed by substrate addition measured after 30 secs at 10 uM by enzyme immunoassay
Please give a number only; it is taken to be in %.

Incoming: Return reported inhibition; argument: `CC(C)(C)OC(=O)N[C@H](Cc1ccc(OCc2ccccc2)cc1)C(=O)N[C@H](CCCCNC(=O)OCc1ccccc1)C(=O)ON1C(=O)CCC1=O`
Outgoing: 32

Incoming: Return reported inhibition; argument: `C[n+]1ccc(Nc2ccc(NC(=O)c3ccc(Nc4cc[n+](C)c5ccc(N)cc45)cc3N)cc2)cc1`
Outgoing: 30

Incoming: Return reported inhibition; argument: CC(=O)O[C@H]1CC[C@]2(C)C3C[C@@]4(C)C(CCC4[C@@H](C)CCCC(C)C)C[C@]3(C#N)n3c(=O)n(-c4ccccc4)c(=O)n3[C@]2(C#N)C1 (stereo not given in full)
Outgoing: 99

Incoming: Return reported inhibition; argument: `O=C(C[C@H](c1ccc2c(c1)OCO2)N1CCN([C@H](CC(=O)c2ccc(Br)cc2)c2ccc3c(c2)OCO3)CC1)c1ccc(Br)cc1`
Outgoing: 50

Incoming: Return reported inhibition; argument: `O=C(N/N=C\c1ccccc1/C=N\NC(=O)Nc1ccc(/N=N/c2ccccc2)cc1)Nc1ccc(/N=N/c2ccccc2)cc1`
Outgoing: 71

Incoming: Return reported inhibition; argument: `CCCCCCCCCCCC(=O)Nc1ccc(SSc2ccc(NC(=O)CCCCCCCCCCC)cc2)cc1`
Outgoing: 70

Incoming: Return reported inhibition; argument: N#Cc1cccc(C2C(=O)c3c(c(-c4ccccc4)c(-c4ccc(Sc5ccc(-c6c(-c7ccccc7)c7c(c(-c8ccccc8)c6-c6ccccc6)C(=O)N(c6cccc(C#N)c6)C7=O)cc5)cc4)c(-c4ccccc4)c3-c3ccccc3)C2=O)c1 (stereo not given)
Outgoing: 100

Incoming: Return reported inhibition; argument: `CCOC(=O)CC(=O)c1cn(CCCOC(=O)CCCCCCCCC(=O)OCCCn2cc(C(=O)CC(=O)OCC)c(=O)[nH]c2=O)c(=O)[nH]c1=O`
Outgoing: 48

Incoming: Return reported inhibition; argument: `CC[n+]1ccc(Nc2ccc(NC(=O)c3ccc(Nc4cc[n+](CC)c5ccc([N+](=O)[O-])cc45)cc3)cc2)cc1`
Outgoing: 70

Incoming: Return reported inhibition; argument: CCCCOc1ccc(NC(=S)Nc2ccc(N(C)C)cc2)cc1 [THIAMBUTOSINE]
Outgoing: 99

Incoming: Return reported inhibition; argument: `Cc1ccccc1NC(=O)/C(Cc1nc2ccc(C(=O)c3ccccc3)cc2nc1O)=N\NC(=O)c1ccncc1`
Outgoing: 94

Incoming: Return reported inhibition; argument: `CC1=NN(C(=O)CC(=O)Nc2ccccc2C)C(=O)[C@@H]1/C=N/c1ccc(S(=O)(=O)c2ccc(/N=N/[C@@H]3C(=O)N(C(=O)CC(=O)Nc4ccccc4C)N=C3C)cc2)cc1`
Outgoing: 36

Incoming: Return reported inhibition; argument: `Cc1ccc(NC(=S)N2CCC(CCCC3CCN(C(=S)Nc4ccc(C)cc4C)CC3)CC2)c(C)c1`
Outgoing: 49

Incoming: Return reported inhibition; argument: `O=P1(N(CCCl)CCCl)N(Cc2ccc(Cl)c(Cl)c2)CCCN1Cc1ccc(Cl)c(Cl)c1`
Outgoing: 65
